Measured values drawn from paper PMC11206297 for this set.

- Tested on: MDA-MB-468
- EXPERIMENT SUMMARY: MTT cell viability assay, MDA-MB-468
- Assay type: cell-based
- CONDITION DETAILS: Homo sapiens, 72 h, mean ± SEM, read-out: Cytotoxicity IC50 MDA-MB-468
READOUT TYPE: IC50 (µM)

[[record]]
compound = "NC(=O)c1cc(F)ccc1OCc1cccc(C(=O)N2CCN(S(=O)(=O)c3ccc(NC(=O)NCc4cccnc4)cc3)CC2)c1 [DDY09]"
measurement_target = "MDA-MB-468"
unit_of_measurement = "µM"
observed = 6.98

[[record]]
compound = "O=C(c1cc(Cc2n[nH]c(=O)c3ccccc23)ccc1F)N1CCN(C(=O)C2CC2)CC1 [Olaparib, reference compound]"
measurement_target = "MDA-MB-468"
unit_of_measurement = "µM"
observed = 6.19

[[record]]
compound = "NC(=O)c1ccccc1OCc1ccc(F)c(C(=O)N2CCN(S(=O)(=O)Cc3ccc(NC(=O)NCc4cccnc4)cc3)CC2)c1 [DDY06]"
measurement_target = "MDA-MB-468"
unit_of_measurement = "µM"
observed = 17.2

[[record]]
compound = "NC(=O)c1ccccc1OCc1ccc(F)c(C(=O)N2CCN(S(=O)(=O)c3ccc(NC(=S)NCc4cccnc4)cc3)CC2)c1 [DDY04]"
measurement_target = "MDA-MB-468"
unit_of_measurement = "µM"
observed = 14.1

[[record]]
compound = "NC(=O)c1ccccc1OCc1ccc(F)c(C(=O)N2CCN(S(=O)(=O)c3ccc(NC(=O)NCc4cccnc4)cc3)CC2)c1 [DDY05]"
measurement_target = "MDA-MB-468"
unit_of_measurement = "µM"
observed = 8.02

[[record]]
compound = "O=C(NCc1cccnc1)Nc1ccc(S(=O)(=O)N2CCN(C(=O)c3cc(Cc4n[nH]c(=O)c5ccccc45)ccc3F)CC2)cc1 [DDY02]"
measurement_target = "MDA-MB-468"
unit_of_measurement = "µM"
observed = 4.43

